experimental.system: T1, monkey GFRα3 expressed with a C-terminal myc-myc-hexahistidine tag (monkey (Mf), UniProt O60609 32-374 (human entry), limits assumed)
T1 construct: also called MfGFRα3-mmh; MfGFRα3-mmH
T1 chain: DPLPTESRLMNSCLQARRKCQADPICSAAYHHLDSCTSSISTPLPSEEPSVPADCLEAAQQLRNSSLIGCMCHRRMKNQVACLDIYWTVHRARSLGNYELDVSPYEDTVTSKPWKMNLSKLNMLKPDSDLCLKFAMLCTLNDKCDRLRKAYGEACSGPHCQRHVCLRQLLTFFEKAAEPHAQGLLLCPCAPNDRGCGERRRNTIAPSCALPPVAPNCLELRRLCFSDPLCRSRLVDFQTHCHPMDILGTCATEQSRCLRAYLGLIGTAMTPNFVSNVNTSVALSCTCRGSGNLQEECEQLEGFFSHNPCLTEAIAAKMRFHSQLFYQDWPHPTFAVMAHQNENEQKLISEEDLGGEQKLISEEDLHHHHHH
assay.summary: SPR, Ab captured, 37C
quantity.kind: koff (s⁻¹)
Field format: number, assumed s⁻¹, no unit text.

| binder | test.result |
| --- | --- |
| H4H2354S (antibody, human IgG4, V domains shown, human IgG4 Fc (H4H); also called H4H2354S-1) VH: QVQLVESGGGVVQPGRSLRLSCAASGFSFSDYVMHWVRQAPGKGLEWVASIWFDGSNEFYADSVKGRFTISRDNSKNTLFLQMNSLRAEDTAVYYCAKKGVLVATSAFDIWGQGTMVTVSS VL: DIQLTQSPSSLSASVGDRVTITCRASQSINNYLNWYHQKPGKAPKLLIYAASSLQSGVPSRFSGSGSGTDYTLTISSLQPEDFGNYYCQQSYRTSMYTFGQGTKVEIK | 0.000435 |
| H4H2344S (antibody, human IgG4, V domains shown, human IgG4 Fc (H4H)) VH: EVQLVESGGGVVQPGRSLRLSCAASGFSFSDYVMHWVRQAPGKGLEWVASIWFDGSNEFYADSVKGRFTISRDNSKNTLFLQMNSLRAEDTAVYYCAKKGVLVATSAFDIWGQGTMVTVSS VL: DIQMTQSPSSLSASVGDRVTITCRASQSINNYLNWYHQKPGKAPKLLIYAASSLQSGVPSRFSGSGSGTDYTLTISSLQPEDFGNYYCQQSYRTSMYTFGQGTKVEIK | 0.000575 |
| H4H2350P (antibody, human IgG4, V domains shown, human IgG4 Fc (H4H)) VH: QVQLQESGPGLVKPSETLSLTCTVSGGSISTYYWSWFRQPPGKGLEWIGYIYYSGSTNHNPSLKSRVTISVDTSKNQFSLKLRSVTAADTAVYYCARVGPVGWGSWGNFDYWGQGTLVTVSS VL: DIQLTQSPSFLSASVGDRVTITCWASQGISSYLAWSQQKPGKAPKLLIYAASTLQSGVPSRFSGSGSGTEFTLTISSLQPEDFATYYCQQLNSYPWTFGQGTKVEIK | 0.000896 |
| H4H2346S (antibody, human IgG4, V domains shown, human IgG4 Fc (H4H)) VH: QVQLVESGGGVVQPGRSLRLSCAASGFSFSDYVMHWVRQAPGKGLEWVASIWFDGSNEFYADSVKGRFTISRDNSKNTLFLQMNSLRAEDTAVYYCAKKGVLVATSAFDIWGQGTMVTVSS VL: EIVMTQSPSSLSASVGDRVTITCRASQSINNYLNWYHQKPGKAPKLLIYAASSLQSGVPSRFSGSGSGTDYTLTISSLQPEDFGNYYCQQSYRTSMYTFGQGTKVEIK | 0.000511 |

Continue with the next binder.
input: Consider the binder H4H2342P (antibody, human IgG4, V domains shown, human IgG4 Fc (H4H)) VH: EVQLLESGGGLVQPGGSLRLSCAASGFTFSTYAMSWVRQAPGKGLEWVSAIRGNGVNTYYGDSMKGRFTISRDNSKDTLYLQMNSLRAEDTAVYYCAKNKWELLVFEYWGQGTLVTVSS VL: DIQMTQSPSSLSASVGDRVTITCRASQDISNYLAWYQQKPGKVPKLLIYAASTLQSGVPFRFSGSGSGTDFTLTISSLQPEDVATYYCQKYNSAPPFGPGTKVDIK and give its measured koff.
output: 0.00166
